Biological target: T1, full-length human Regnase-1 with a FLAG tag on the N-terminal side and a biotin ligase BirA recognition … (human, UniProt Q5D1E8 1-599, biotinylated where required ; Biotinylated at the BirA recognition sequence where required. That sequence is not in the letters.)
T1 sequence: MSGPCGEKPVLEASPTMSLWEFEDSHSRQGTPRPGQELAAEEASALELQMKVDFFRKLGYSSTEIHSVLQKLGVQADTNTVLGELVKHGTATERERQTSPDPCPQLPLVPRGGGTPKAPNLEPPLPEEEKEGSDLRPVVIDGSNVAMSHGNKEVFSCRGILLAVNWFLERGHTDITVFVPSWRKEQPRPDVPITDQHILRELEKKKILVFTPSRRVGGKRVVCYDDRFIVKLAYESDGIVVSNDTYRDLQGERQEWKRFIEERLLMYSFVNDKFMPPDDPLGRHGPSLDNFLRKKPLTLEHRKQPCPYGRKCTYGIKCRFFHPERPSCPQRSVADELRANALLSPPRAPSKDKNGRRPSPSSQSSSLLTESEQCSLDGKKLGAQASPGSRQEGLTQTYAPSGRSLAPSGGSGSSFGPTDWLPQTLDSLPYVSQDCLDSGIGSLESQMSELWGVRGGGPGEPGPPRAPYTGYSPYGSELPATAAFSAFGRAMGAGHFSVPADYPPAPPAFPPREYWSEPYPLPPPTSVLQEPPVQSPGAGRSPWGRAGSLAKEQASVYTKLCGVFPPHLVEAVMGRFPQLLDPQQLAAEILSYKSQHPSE
Experiment: cell-based or functional assay
Positions of bridges follow the written chain, without caps; N, C: chain ends. Non-standard residues stand in square brackets, D forms with d. No end group written: not given here. NMeA = CN[C@@H](C)C(=O)O; dNMeA = CN[C@H](C)C(=O)O
Measured IC50, phosphorylation by IKKβ accompanies every entry in the list below.

BINDER: [NMeA]VFYKIWYNWD (lactam N-11) [PP19]
IC50, phosphorylation by IKKβ, µM: 5.4
//
BINDER: [NMeA]NSWYKIWGLD (lactam N-11) [PP21]
IC50, phosphorylation by IKKβ, µM: 19.6
//
BINDER: [NMeA]NSWYINIWGHD (lactam N-12) [PP15]
IC50, phosphorylation by IKKβ, µM: 5.6
//
BINDER: [dNMeA]KHASAWYRIWD (lactam N-12) [PP3]
IC50, phosphorylation by IKKβ, µM: 4.6
//
BINDER: [NMeA]KFAQFRWIYPD (lactam N-12) [PP11]
IC50, phosphorylation by IKKβ, µM: 22.3
//
BINDER: [NMeA]RYAVYQWIYPD (lactam N-12) [PP12]
IC50, phosphorylation by IKKβ, µM: 6.8
//
BINDER: [NMeA]HSNAWYNIWD (lactam N-11) [PP5]
IC50, phosphorylation by IKKβ, µM: 23.6
//
BINDER: [dNMeA]SKYWNSWYNIWD (lactam N-13) [PP8]
IC50, phosphorylation by IKKβ, µM: 1.4
//
BINDER: [NMeA]NFSNSWYNIWD (lactam N-12) [PP16]
IC50, phosphorylation by IKKβ, µM: 20.6
//
BINDER: [NMeA]NFNSAYYRAIWD (lactam N-13) [PP7]
IC50, phosphorylation by IKKβ, µM: 0.8
//
BINDER: [dNMeA]PNSSWFKIWD (lactam N-11) [PP6]
IC50, phosphorylation by IKKβ, µM: 17
//
BINDER: [dNMeA]EDTPEDDHD (lactam N-10) [PP25]
IC50, phosphorylation by IKKβ, µM: 27
//
BINDER: [NMeA]DIWFDYWDYD (lactam N-11) [PP18]
IC50, phosphorylation by IKKβ, µM: 0.4
//
BINDER: [NMeA]TSWYKVNWGQD (lactam N-12) [PP1]
IC50, phosphorylation by IKKβ, µM: 28.1
